Several reports have described pIC50 for Histone deacetylase 8 (Homo sapiens); a selection of those results is presented here.
pIC50: −log10 of the molar value.

MOLECULE	pIC50
O=C(NO)c1cnc2c(c1)CCN(C1CCC3(CCC3)CC1)C2	5.00 to 6.00
CN(Cc1ccc2c(c1)CCC(C(=O)NO)=C2)CC12CC3CC(CC(C3)C1)C2	5.62
CC1(C)c2cccc(C(N)=O)c2CN1c1cnc(C(F)(F)F)cn1	< 6.00

Q: # assay system Histone deacetylase 8 (Homo sapiens): give pIC50 of O=C(NO)c1cc(F)c2c(c1)CN(CC13CC4CC(CC(C4)O1)C3)CC2
Result: 6.00 to 7.00

Q: # assay system Histone deacetylase 8 (Homo sapiens): give pIC50 of C[C@H]1CC[C@H]2c3c(F)cc(C(=O)NO)cc3CCN12 (single isomer, unassigned)
Result: 5.00 to 6.00

Q: # assay system Histone deacetylase 8 (Homo sapiens): give pIC50 of COc1ccc(Cn2ccc3ccc(C(=O)NO)cc32)cn1
Result: > 6.00

----------
pIC50: −log10 of the molar value.
Several reports have described pIC50 for Histone deacetylase 8 (Homo sapiens); a selection of those results is presented here.

Below are worked cases with known answers.
COMPOUND	pIC50
O=C(NO)c1cc(F)cc(CN2CCC3(CCCCC3)CC2)c1	5.00 to 6.00
O=C(NO)c1cc(F)c2c(c1)CCN([C@H]1CCC3(CCCC3)C1)C2 (single isomer, unassigned)	4.00 to 5.00
CC(=O)N1CCC[C@]2(C1)C[C@@H](N1CCc3cc(C(=O)NO)cc(F)c3C1)C2 (single isomer, unassigned)	4.00 to 5.00
CC(=O)Nc1ccc(C(=O)Nc2ccc(F)cc2N)cc1	< 4.48
O=C(NO)c1cc(F)c2c(c1)CCN([C@H]1CCCC3(CCC3)C1)C2 (single isomer, unassigned)	4.00 to 5.00

Q: In one line, give reported pIC50 of the entry C/C=C1\NC(=O)c2nc(ccc2F)CNC(=O)C[C@@H](/C=C/CCSC(=O)CCCCCCC)OC(=O)[C@H](C(C)C)NC1=O .
Result: 7.37

Q: In one line, give reported pIC50 of the entry Cn1cc(Cc2ccc(NC(=O)c3ccccc3)cc2)c2cc(C(=O)NO)ccc21 .
Result: > 7.00

Q: In one line, give reported pIC50 of the entry O=C(NO)c1cc(F)c2c(c1)CCN(C1CC3(C1)CN(C1CC1)C3)C2 .
Result: 5.00 to 6.00

Q: In one line, give reported pIC50 of the entry C[C@@H](Nc1ncc(-c2nnc(C(F)F)o2)cn1)c1ccc(F)cc1F .
Result: < 4.52

----------
Several reports have described IC50 for Histone deacetylase 8 (Homo sapiens); a selection of those results is presented here.

COMPOUND	IC50
O=C(NO)c1ccc(CN(C(=O)N2CCOCC2)c2cccc(C(F)(F)F)c2)cc1	2.07 µM
CC(=O)N1CCC[C@]2(C1)C[C@H](N1CCc3cc(C(=O)NO)cc(F)c3C1)C2 (single isomer, unassigned)	10 to 100 µM
CC(=O)N1CC2(CCC(CN3CCc4cc(C(=O)NO)cc(F)c4C3)CC2)C1	10 to 100 µM
CN1CC[C@@]2(CC[C@H]2N2CCc3cc(C(=O)NO)cc(F)c3C2)C1 (single isomer, unassigned)	10 to 100 µM
O=C(NO)c1cc(F)c2c(c1)CCN(C1CC3(CCN(C4CC4)CC3)C1)C2	10 to 100 µM
CCNc1nc2ccc(-c3cn(Cc4ccc(-c5nnc(C(F)F)o5)cn4)nn3)cc2[nH]1	> 200 µM
CC[C@@H](c1ccc(C(=O)NO)cc1F)N1CCC2(CCCCC2)C1 (single isomer, unassigned)	1 to 10 µM
CN(Cc1ccc(/C=C/C(=O)NO)cc1F)CC12CC3CC(CC(C3)C1)C2	> 50 µM
CC[C@@H]1Cc2c(F)cc(C(=O)NO)cc2CN1CC1CCCCC1 (single isomer, unassigned)	1 to 10 µM
CC(=O)N1CC2(C[C@@H](N3CCc4cc(C(=O)NO)cc(F)c4C3)CCO2)C1 (single isomer, unassigned)	10 to 100 µM

Q: # assay system Histone deacetylase 8 (Homo sapiens): give IC50 of Cn1cc(Cc2ccc(F)cc2)c2cc(C(=O)NO)ccc21
Result: < 0.1 µM

Q: # assay system Histone deacetylase 8 (Homo sapiens): give IC50 of CC[C@@H]1Cc2c(F)cc(C(=O)NO)cc2CN1CC12CC3CC(CC(C3)O1)C2 (single isomer, unassigned)
Result: 1 to 10 µM

Q: # assay system Histone deacetylase 8 (Homo sapiens): give IC50 of O=C(NO)c1ccc(Cc2nnc(-c3ccc(F)cc3F)o2)cc1
Result: 1 µM

Q: # assay system Histone deacetylase 8 (Homo sapiens): give IC50 of O=C(Nc1cccc(-c2cn(Cc3ccc(-c4nnc(C(F)F)o4)cn3)nn2)c1)N1CCOCC1
Result: > 200 µM

Q: # assay system Histone deacetylase 8 (Homo sapiens): give IC50 of O=C(NO)c1ccc2ccn(CCOc3ccccc3F)c2c1
Result: < 1 µM

Q: # assay system Histone deacetylase 8 (Homo sapiens): give IC50 of CN(C(=O)CCCCCCCNc1cccc2c1C(=O)N(C1CCC(=O)NC1=O)C2=O)c1ccc(NC(=O)CCCCCCC(=O)NO)cc1 (stereo not shown)
Result: 0.4 µM

----------
Several reports have described IC50 for Histone deacetylase 8 (Homo sapiens, UniProt Q9BY41); a selection of those results is presented here.
OBSERVATION_TYPE: IC50 (nM)

COMPOUND	OBSERVATION_TYPE	ASSAY_VALUE
C=C1NC(=O)c2nc(ccc2F)CNC(=O)C[C@@H](/C=C/CCSC(C)=O)OC(=O)[C@H](C(C)C)NC1=O	IC50	29
C/C=C1\NC(=O)c2cc(F)cc(n2)CNC(=O)C[C@@H](/C=C/CCSC(C)=O)OC(=O)[C@H](CC)NC1=O	IC50	51
C/C=C1\NC(=O)c2nc(ccc2F)CNC(=O)C[C@@H](/C=C/CCSC=O)OC(=O)[C@H](C(C)C)NC1=O	IC50	41

A. C/C=C1\NC(=O)c2nc(ccc2F)CNC(=O)C[C@@H](/C=C/CCSC(C)=O)OC(=O)[C@H](Cc2cccc3ccccc23)NC1=O
B. CCCCc1nc2cc(/C=C/C(=O)NO)ccc2n1CCN(C)C
C. CN(C(=O)CCCNc1cccc2c1C(=O)N(C1CCC(=O)NC1=O)C2=O)c1ccc(NC(=O)CCCCCCC(=O)NO)cc1 (stereo not drawn)
Q: Would you mind ranking these compounds by ascending IC50? Please, when replying, give the labels in the order that was requested.
Result: A, C, B
(A: 39 nM, C: 621 nM, B: 2370 nM)

----------
Several reports have described IC50 for UniProt:Q9BY41; a selection of those results is presented here.

COMPOUND	ASSAY_VALUE
O=C(NO)c1cc(F)c2c(c1)CCN([C@H]1C[C@@]3(CCCCO3)C1)C2 (single isomer, unassigned)	10 to 100 µM

Q: In one line, give reported IC50 of the entry CC(=O)N1CCC2(CCC(N3CCc4cc(C(=O)NO)cc(F)c4C3)C2)CC1 (centres unmarked) .
Result: 10 to 100 µM

Q: In one line, give reported IC50 of the entry O=C(/C=C/c1ccccc1Oc1ccc(Cl)c(Cl)c1)NO .
Result: ≤ 0.1 µM

Q: In one line, give reported IC50 of the entry Cn1c(N)nc2cc(-c3nnn(Cc4ccc(-c5nnc(C(F)F)o5)cc4)n3)ccc21 .
Result: > 200 µM

Q: In one line, give reported IC50 of the entry CC[C@H]1Cc2c(F)cc(C(=O)NO)cc2CN1CC12CC(C1)N(C)C2 (single isomer, unassigned) .
Result: 1 to 10 µM

Q: In one line, give reported IC50 of the entry O=C(/C=C/c1ccccc1Oc1cccc(Cl)c1)NO .
Result: ≤ 0.1 µM

Q: In one line, give reported IC50 of the entry Fc1ccc(C(CC(F)(F)F)Nc2ncc(-c3nnc(C(F)F)o3)cn2)cc1 (centres unmarked) .
Result: > 30 µM

Q: In one line, give reported IC50 of the entry O=C(NO)c1cc(F)c(Cn2nnnc2-c2ccccn2)c(F)c1 .
Result: 0.49 µM

----------
Several reports have described pIC50 for Histone deacetylase 8 (Homo sapiens); a selection of those results is presented here.
pIC50: −log10 of the molar value.

Below are worked cases with known answers.
MOLECULE	pIC50
CC[C@@H]1Cc2c(F)cc(C(=O)NO)cc2CN1C1CCCCC1 (single isomer, unassigned)	4.00 to 5.00
COc1cc(Cn2ccc3ccc(C(=O)NO)cc32)cc(OC)c1	> 7.00
C/C=C1\NC(=O)c2cccc(n2)CNC(=O)C[C@@H](/C=C/CCSC(C)=O)OC(=O)[C@H](CCCCNC(=O)OCC2c3ccccc3-c3ccccc32)NC1=O	7.21

Q: # assay system Histone deacetylase 8 (Homo sapiens): give pIC50 of CC[C@H]1Cc2c(F)cc(C(=O)NO)cc2CN1C[C@H]1CCCCO1 (single isomer, unassigned)
Result: 5.00 to 6.00

Q: # assay system Histone deacetylase 8 (Homo sapiens): give pIC50 of CC(=O)N1CCC2(CC1)CC(N1CCc3cc(C(=O)NO)cnc3C1)C2
Result: 4.00 to 5.00

Q: # assay system Histone deacetylase 8 (Homo sapiens): give pIC50 of COCCOc1ccc(/C=C/C(=O)NO)c(Oc2ccc(Cl)c(Cl)c2)c1
Result: ≥ 7.00

Q: # assay system Histone deacetylase 8 (Homo sapiens): give pIC50 of O=C(NO)c1cnc2c(c1)CCN(C1CC3(CCNCC3)C1)C2
Result: 4.00 to 5.00

Q: # assay system Histone deacetylase 8 (Homo sapiens): give pIC50 of O=C(NO)c1cc(F)c2c(c1)CCN([C@H]1C[C@@]3(CCCNC3)C1)C2 (single isomer, unassigned)
Result: 5.00 to 6.00
